Taken from BindingDB's records for PubMed 1352553.

EXPERIMENTAL SYSTEM: UniProt Q64640
Sequence (Q64640 whole entry): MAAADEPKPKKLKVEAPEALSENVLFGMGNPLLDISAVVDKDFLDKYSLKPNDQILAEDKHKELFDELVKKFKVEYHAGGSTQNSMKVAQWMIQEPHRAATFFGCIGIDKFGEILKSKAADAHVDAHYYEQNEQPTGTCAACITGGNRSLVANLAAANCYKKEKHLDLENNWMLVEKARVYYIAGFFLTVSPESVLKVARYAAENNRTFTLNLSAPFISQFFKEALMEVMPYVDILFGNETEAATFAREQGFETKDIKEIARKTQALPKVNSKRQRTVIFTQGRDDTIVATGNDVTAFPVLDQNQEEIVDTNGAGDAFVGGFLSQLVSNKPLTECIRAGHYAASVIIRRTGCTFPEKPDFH
RECORDED ENDPOINT: Ki

Item Oc1cc2c(cc1O)[C@@H]1c3ccccc3CN[C@@H]1CC2 was tested on UniProt Q64640; the reported Ki is > 10 µM

====

EXPERIMENTAL SYSTEM: Voltage-dependent L-type calcium channel subunit alpha-1C (Rattus norvegicus, UniProt P22002)
Sequence (P22002 whole entry): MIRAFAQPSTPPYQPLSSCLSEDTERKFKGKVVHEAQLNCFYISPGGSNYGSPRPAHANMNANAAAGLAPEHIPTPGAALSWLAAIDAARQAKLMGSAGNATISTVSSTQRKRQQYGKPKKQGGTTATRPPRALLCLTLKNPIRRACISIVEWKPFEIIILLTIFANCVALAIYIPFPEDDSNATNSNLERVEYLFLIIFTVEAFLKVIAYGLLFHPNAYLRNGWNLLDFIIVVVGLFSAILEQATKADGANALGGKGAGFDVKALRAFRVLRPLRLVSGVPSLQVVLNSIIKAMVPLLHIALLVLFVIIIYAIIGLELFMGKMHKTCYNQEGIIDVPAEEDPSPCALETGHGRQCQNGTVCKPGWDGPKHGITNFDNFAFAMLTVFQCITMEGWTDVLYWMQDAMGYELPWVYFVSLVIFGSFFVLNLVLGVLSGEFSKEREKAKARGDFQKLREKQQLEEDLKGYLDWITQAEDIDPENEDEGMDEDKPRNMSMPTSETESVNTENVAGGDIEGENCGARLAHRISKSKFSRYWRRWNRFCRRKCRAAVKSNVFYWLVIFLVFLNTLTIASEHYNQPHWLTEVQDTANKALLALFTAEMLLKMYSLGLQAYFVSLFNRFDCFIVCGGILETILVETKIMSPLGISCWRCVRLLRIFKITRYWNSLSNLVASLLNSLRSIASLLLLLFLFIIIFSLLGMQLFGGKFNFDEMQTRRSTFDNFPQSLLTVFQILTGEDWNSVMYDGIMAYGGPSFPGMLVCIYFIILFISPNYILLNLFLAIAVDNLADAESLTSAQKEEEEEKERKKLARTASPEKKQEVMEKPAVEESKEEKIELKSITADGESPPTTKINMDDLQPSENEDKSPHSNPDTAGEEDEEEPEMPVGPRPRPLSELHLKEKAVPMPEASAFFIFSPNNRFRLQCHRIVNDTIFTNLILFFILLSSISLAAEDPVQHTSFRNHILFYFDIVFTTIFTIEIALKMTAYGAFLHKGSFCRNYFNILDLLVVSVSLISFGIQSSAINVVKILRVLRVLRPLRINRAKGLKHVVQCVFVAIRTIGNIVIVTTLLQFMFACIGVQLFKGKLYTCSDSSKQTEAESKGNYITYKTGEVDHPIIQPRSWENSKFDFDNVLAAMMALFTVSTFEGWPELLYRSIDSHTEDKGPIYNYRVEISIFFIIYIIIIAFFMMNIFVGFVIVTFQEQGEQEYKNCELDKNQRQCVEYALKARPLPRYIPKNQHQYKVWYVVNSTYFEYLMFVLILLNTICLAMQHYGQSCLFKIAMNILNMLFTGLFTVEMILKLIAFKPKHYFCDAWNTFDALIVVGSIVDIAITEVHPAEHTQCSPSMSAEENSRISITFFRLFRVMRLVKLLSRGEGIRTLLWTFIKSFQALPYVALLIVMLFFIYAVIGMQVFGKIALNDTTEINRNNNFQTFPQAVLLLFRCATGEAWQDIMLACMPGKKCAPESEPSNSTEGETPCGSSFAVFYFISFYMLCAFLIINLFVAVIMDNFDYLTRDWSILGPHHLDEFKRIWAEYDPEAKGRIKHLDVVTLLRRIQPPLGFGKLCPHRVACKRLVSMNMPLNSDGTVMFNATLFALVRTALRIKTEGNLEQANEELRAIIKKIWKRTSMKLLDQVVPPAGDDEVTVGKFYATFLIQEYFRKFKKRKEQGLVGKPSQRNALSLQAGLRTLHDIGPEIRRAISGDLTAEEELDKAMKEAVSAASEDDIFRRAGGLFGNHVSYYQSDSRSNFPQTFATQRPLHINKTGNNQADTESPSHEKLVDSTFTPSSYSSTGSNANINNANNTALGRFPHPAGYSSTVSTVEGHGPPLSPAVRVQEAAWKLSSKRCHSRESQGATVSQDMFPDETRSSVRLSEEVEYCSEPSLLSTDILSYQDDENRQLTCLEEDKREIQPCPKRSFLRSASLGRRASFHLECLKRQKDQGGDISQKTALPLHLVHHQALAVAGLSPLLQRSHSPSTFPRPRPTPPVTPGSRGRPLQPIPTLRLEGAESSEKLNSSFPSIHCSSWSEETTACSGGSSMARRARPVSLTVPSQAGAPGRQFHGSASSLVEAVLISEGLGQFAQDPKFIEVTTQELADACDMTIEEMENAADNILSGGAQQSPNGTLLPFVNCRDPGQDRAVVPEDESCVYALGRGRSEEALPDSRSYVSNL
RECORDED ENDPOINT: Ki

Reported Ki ( Oc1cc2c(cc1O)[C@@H]1c3ccccc3CN[C@@H]1CC2 ) = > 10 µM

====

EXPERIMENTAL SYSTEM: Sigma non-opioid intracellular receptor 1 (Rattus norvegicus)
Sequence (Q9R0C9 whole entry): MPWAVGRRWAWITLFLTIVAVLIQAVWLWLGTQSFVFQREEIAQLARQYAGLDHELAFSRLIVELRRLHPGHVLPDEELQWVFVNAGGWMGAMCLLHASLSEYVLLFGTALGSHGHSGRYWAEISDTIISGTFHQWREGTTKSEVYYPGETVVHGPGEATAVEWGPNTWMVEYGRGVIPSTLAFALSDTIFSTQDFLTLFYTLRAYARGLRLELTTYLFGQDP
RECORDED ENDPOINT: Ki

Reported Ki ( Oc1cc2c(cc1O)[C@@H]1c3ccccc3CN[C@@H]1CC2 ) = > 10 µM
